Molecular target: ISOC2 Isochorismatase domain-containing protein 2, mitochondrial (Homo sapiens)
Construct: isoTOP-ABPP experiments performed in cell lysates (in vitro); endogenous in cells; host or cells: soluble proteome of human cancer cell lines (MDA-MB-231; Ramos and Jurkat also prepared)
Sequence (Q96AB3 whole entry, the tested form may be a part): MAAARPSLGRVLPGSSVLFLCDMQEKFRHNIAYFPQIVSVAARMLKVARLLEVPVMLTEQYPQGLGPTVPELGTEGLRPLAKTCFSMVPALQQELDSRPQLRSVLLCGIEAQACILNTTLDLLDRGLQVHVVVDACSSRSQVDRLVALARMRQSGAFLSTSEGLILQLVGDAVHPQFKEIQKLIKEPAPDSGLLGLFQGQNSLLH
Assay: competitive isoTOP-ABPP
Type: binding
Conditions: Q96AB3_K178; 50 uM, 231 sol, in vitro
Measurement kind: R value (DMSO/fragment) for probe 1 labeling

Compound	Value
O=C(Oc1c(F)c(F)c(F)c(F)c1F)C(c1ccccc1)c1ccccc1 [fragment 20, Pentafluorophenyl 2,2-diphenylacetate]	0.9
O=C(CCc1cn(-c2ccccc2)nc1-c1ccccc1)Oc1c(F)c(F)c(F)c(F)c1F	1.2
COc1cc(CCC(=O)Oc2c(F)c(F)c(F)c(F)c2F)cc(OC)c1OC	1.2
O=C(Oc1c(F)c(F)c(F)c(F)c1F)c1cc(C(F)(F)F)cc(C(F)(F)F)c1	1.0
Cn1cc(CC(=O)Oc2c(F)c(F)c(F)c(F)c2F)c2ccccc21	1.0

----------
Target: GABARAPL2 Gamma-aminobutyric acid receptor-associated protei (Homo sapiens)
Construct: isoTOP-ABPP experiments performed in cell lysates (in vitro); endogenous in cells; host or cells: soluble proteome of human cancer cell lines (MDA-MB-231, Ramos, Jurkat)
Sequence (P60520 1-116 limits assumed): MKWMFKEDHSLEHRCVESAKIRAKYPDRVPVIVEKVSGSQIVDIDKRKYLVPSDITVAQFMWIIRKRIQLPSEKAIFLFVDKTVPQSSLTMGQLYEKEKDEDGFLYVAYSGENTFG
Assay: competitive isoTOP-ABPP
Assay type: binding
Details: 50 uM_231_sol_in vitro
Measurement kind: isoTOP-ABPP ratio, lysine P60520_K46

Molecule	Measurement kind	Value
O=C(CCc1ccc2c(c1)OCO2)Oc1ccc([N+](=O)[O-])cc1[N+](=O)[O-]	isoTOP-ABPP ratio, lysine P60520_K46	1.0
O=C(Oc1c(F)c(F)cc(F)c1F)c1cc(C(F)(F)F)cc(C(F)(F)F)c1	isoTOP-ABPP ratio, lysine P60520_K46	0.9
N#Cc1ccc(C(=O)Oc2ccc([N+](=O)[O-])cc2[N+](=O)[O-])cc1 [fragment 44, 2,4-Dinitrophenyl 4-cyanobenzoate]	isoTOP-ABPP ratio, lysine P60520_K46	0.9
O=C(Oc1c(F)c(F)c(C(F)(F)F)c(F)c1F)c1cc(C(F)(F)F)cc(C(F)(F)F)c1	isoTOP-ABPP ratio, lysine P60520_K46	1.0
NC(=O)c1cc(C(F)(F)F)cc(C(F)(F)F)c1 [fragment 51, reference compound]	isoTOP-ABPP ratio, lysine P60520_K46	1.0

----------
Here the recorded isoTOP-ABPP ratio (R) at liganded lysine Q96C01_K99 is given for each entry.
Target: FAM136A Protein FAM136A (Homo sapiens, UniProt Q96C01)
Construct: isoTOP-ABPP experiments performed in cell lysates (in vitro); endogenous in cells; host or cells: soluble proteome of human cancer cell lines (MDA-MB-231; Ramos and Jurkat also prepared)
Assay: competitive isoTOP-ABPP
Assay type: binding
Details: 50 uM, in vitro, sol, 231
Please give only the number in your answer, with no unit.

Here's what some known entries look like.
Compound	Value
O=C(CCc1coc2cc(F)ccc2c1=O)Oc1ccc([N+](=O)[O-])cc1[N+](=O)[O-] [fragment 36]	0.8
CC(=O)Oc1ccc([N+](=O)[O-])cc1[N+](=O)[O-] [fragment 43, 2,4-Dinitrophenyl acetate]	1.1
O=C(Oc1ccc([N+](=O)[O-])cc1[N+](=O)[O-])c1ccc(Oc2ccccc2)cc1 [fragment 39, 2,4-Dinitrophenyl 4-phenoxybenzoate]	0.8

Form field isoTOP-ABPP ratio (R) at liganded lysine Q96C01_K99, entry O=C(Oc1ccc([N+](=O)[O-])cc1[N+](=O)[O-])c1ccccc1Nc1cccc(C(F)(F)F)c1 [fragment 40] : 0.8

Form field isoTOP-ABPP ratio (R) at liganded lysine Q96C01_K99, entry O=C(Oc1ccc([N+](=O)[O-])cc1[N+](=O)[O-])C1CCN(C(=O)OCc2ccccc2)CC1 [fragment 34] : 1.2

Form field isoTOP-ABPP ratio (R) at liganded lysine Q96C01_K99, entry O=C(Oc1ccc([N+](=O)[O-])cc1[N+](=O)[O-])c1ccc(-c2ccccc2)cc1 [fragment 37] : 1.0

Form field isoTOP-ABPP ratio (R) at liganded lysine Q96C01_K99, entry O=C(Oc1ccc([N+](=O)[O-])cc1[N+](=O)[O-])C(c1ccccc1)(c1ccccc1)c1ccccc1 [fragment 42, 2,4-Dinitrophenyl 2,2,2-triphenylacetate] : 0.9

Form field isoTOP-ABPP ratio (R) at liganded lysine Q96C01_K99, entry CC(C)(C)OC(=O)NCCCC(=O)Oc1ccc([N+](=O)[O-])cc1[N+](=O)[O-] [fragment 41] : 0.9

----------
Target: MAP1LC3B Microtubule-associated proteins 1A/1B light chain (Homo sapiens)
Construct: isoTOP-ABPP experiments performed in cell lysates (in vitro); endogenous in cells; host or cells: soluble proteome of human cancer cell lines (MDA-MB-231; Ramos and Jurkat also prepared)
Assay: competitive isoTOP-ABPP
Type: binding
Details: 50 uM, in vitro, sol, 231
Measurement kind: isoTOP-ABPP ratio (R) at liganded lysine Q9GZQ8_K51
Please give only the number in your answer, with no unit.

Compound	Target of assay	Value
O=C(CCc1coc2cc(F)ccc2c1=O)Oc1ccc([N+](=O)[O-])cc1[N+](=O)[O-] [fragment 36]	MAP1LC3B Microtubule-associated proteins 1A/1B light chain (Homo sapiens)	0.8
O=C(Oc1ccc([N+](=O)[O-])cc1[N+](=O)[O-])c1ccccc1Nc1cccc(C(F)(F)F)c1 [fragment 40]	MAP1LC3B Microtubule-associated proteins 1A/1B light chain (Homo sapiens)	1.0
CC(C)(C)OC(=O)NCCCC(=O)Oc1ccc([N+](=O)[O-])cc1[N+](=O)[O-] [fragment 41]	MAP1LC3B Microtubule-associated proteins 1A/1B light chain (Homo sapiens)	0.9

// isoTOP-ABPP ratio (R) at liganded lysine Q9GZQ8_K51 (MAP1LC3B Microtubule-associated proteins 1A/1B light chain (Homo sapiens)) for O=C(Oc1ccc([N+](=O)[O-])cc1[N+](=O)[O-])C1CCN(C(=O)OCc2ccccc2)CC1 [fragment 34] = 1.0

// isoTOP-ABPP ratio (R) at liganded lysine Q9GZQ8_K51 (MAP1LC3B Microtubule-associated proteins 1A/1B light chain (Homo sapiens)) for O=C(Oc1ccc([N+](=O)[O-])cc1[N+](=O)[O-])c1ccc(Oc2ccccc2)cc1 [fragment 39, 2,4-Dinitrophenyl 4-phenoxybenzoate] = 0.9

// isoTOP-ABPP ratio (R) at liganded lysine Q9GZQ8_K51 (MAP1LC3B Microtubule-associated proteins 1A/1B light chain (Homo sapiens)) for O=C(CC12CC3CC(CC(C3)C1)C2)Oc1ccc([N+](=O)[O-])cc1[N+](=O)[O-] [fragment 38] = 0.8

// isoTOP-ABPP ratio (R) at liganded lysine Q9GZQ8_K51 (MAP1LC3B Microtubule-associated proteins 1A/1B light chain (Homo sapiens)) for O=C(Oc1ccc([N+](=O)[O-])cc1[N+](=O)[O-])C(c1ccccc1)(c1ccccc1)c1ccccc1 [fragment 42, 2,4-Dinitrophenyl 2,2,2-triphenylacetate] = 0.9

// isoTOP-ABPP ratio (R) at liganded lysine Q9GZQ8_K51 (MAP1LC3B Microtubule-associated proteins 1A/1B light chain (Homo sapiens)) for O=C(Oc1ccc([N+](=O)[O-])cc1[N+](=O)[O-])c1ccc2ccccc2n1 [fragment 35] = 1.0

// isoTOP-ABPP ratio (R) at liganded lysine Q9GZQ8_K51 (MAP1LC3B Microtubule-associated proteins 1A/1B light chain (Homo sapiens)) for O=C(Oc1ccc([N+](=O)[O-])cc1[N+](=O)[O-])c1ccc(-c2ccccc2)cc1 [fragment 37] = 0.9

----------
Molecular target: GSTT2B Glutathione S-transferase theta-2B (Homo sapiens)
Construct: isoTOP-ABPP experiments performed in cell lysates (in vitro); endogenous in cells; host or cells: MDA-MB-231 soluble lysate
Sequence (P0CG30 whole entry): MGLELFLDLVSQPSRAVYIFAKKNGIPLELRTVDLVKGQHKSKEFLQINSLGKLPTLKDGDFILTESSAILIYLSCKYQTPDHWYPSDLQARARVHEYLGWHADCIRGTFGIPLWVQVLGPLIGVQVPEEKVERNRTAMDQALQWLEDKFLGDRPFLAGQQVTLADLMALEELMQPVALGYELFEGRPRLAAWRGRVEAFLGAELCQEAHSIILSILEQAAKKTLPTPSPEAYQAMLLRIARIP
Experiment: competitive isoTOP-ABPP
Assay type: binding
Details: 50 uM, in vitro, sol, 231
Measurement kind: isoTOP-ABPP ratio (R) at liganded lysine P0CG30_K53
Please give only the number in your answer, with no unit.

Here's what some known entries look like.
Compound	Target of assay	Value
O=C(Oc1ccc([N+](=O)[O-])cc1[N+](=O)[O-])c1ccc2ccccc2n1 [fragment 35]	GSTT2B Glutathione S-transferase theta-2B (Homo sapiens)	4.1
CC(=O)Oc1ccc([N+](=O)[O-])cc1[N+](=O)[O-] [fragment 43, 2,4-Dinitrophenyl acetate]	GSTT2B Glutathione S-transferase theta-2B (Homo sapiens)	0.6
O=C(Oc1ccc([N+](=O)[O-])cc1[N+](=O)[O-])c1ccc(-c2ccccc2)cc1 [fragment 37]	GSTT2B Glutathione S-transferase theta-2B (Homo sapiens)	0.7

Here's the next entry for you.
Form field isoTOP-ABPP ratio (R) at liganded lysine P0CG30_K53, entry O=C(CCc1coc2cc(F)ccc2c1=O)Oc1ccc([N+](=O)[O-])cc1[N+](=O)[O-] [fragment 36] : 0.5

----------
Target: NUDT22 Nucleoside diphosphate-linked moiety X motif 22 (Homo sapiens, UniProt Q9BRQ3)
Construct: isoTOP-ABPP experiments performed in cell lysates (in vitro); endogenous in cells; host or cells: soluble proteome of human cancer cell lines (MDA-MB-231; Ramos and Jurkat also prepared)
Sequence (Q9BRQ3 whole entry): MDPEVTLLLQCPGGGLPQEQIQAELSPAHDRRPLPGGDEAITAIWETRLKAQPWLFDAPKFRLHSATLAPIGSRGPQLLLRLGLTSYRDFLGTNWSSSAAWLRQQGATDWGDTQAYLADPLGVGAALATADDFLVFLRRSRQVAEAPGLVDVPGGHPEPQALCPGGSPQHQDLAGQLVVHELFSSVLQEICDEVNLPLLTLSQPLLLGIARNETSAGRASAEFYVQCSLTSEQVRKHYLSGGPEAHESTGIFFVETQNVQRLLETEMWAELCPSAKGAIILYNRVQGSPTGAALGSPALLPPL
Experiment: competitive isoTOP-ABPP
Format: binding
Settings: 50 uM, 231 sol, in vitro
Measurement kind: isoTOP-ABPP reactivity ratio at lysine Q9BRQ3_K60

Chemical structure	Value
CCn1cc(C(=O)Oc2c(F)c(F)c(F)c(F)c2F)c(=O)c2ccc(C)nc21	1.0
O=C(Oc1ccc([N+](=O)[O-])cc1[N+](=O)[O-])c1cc(C(F)(F)F)cc(C(F)(F)F)c1	1.1
O=C(CCc1coc2cc(F)ccc2c1=O)Oc1c(F)c(F)c(F)c(F)c1F	0.8
Cn1cc(CC(=O)Oc2ccc([N+](=O)[O-])cc2[N+](=O)[O-])c2ccccc21	20.0
O=C(CCc1cn(-c2ccccc2)nc1-c1ccccc1)Oc1ccc([N+](=O)[O-])cc1[N+](=O)[O-]	0.8

a = O=C(Oc1c(F)c(F)c(F)c(F)c1F)c1ccc2ccccc2n1
b = O=C(CN1C(=O)c2ccccc2C1=O)Oc1c(F)c(F)c(F)c(F)c1F
Prompt: Sort a and b by isoTOP-ABPP reactivity ratio at lysine Q9BRQ3_K60 descending and give the first. Select an item and report its label.
Response: b
(b: 1.2, a: 0.8)
